- assay.comment: in vitro
- experimental.conditions: human, Cell viability(%), individual samples
value.kind: viability at 2 µM (%)

| smiles.entry | value.kind | unit.of.measure | experimental.value |
| --- | --- | --- | --- |
| Cc1cc(C2CCCCC2)n(O)c(=O)c1 | viability at 2 µM | % | 99.6 |

###

- assay.comment: in vitro
- experimental.conditions: human, Cell viability(%), AVERAGE
value.kind: viability at 0.5 µM (%)

| smiles.entry | unit.of.measure | experimental.value |
| --- | --- | --- |
| Cc1cc(C2CCCCC2)n(O)c(=O)c1 | % | 99.4 |

###

- assay.comment: in vitro
- Assay type: cell-based, human
- experimental.conditions: human, Cell viability(%), individual samples

| smiles.entry | viability at 5 µM [%] |
| --- | --- |
| Cc1cc(C2CCCCC2)n(O)c(=O)c1 | 93 |
